The entries below are paired with their reported MEC-1 Cell Death (%) 2 h.
- Tested on: MEC-1 cells
- Measurement Description: MEC-1 cell death (PCD) after 2 h peptide treatment
- Format: cell-based
- Condition Set: Table 2, NPD = Non Pertinent Data
- Description: Then the peptides structures were tested via NMR and X-ray. The peptides were also tested for their activity on MEC-1 and their KDs and Retention times on LCMS were determined.
Residues, ends and D or L forms follow the SMILES beside them.
# output: bare number, implied unit %

Q: # MEC-1 Cell Death (%) 2 h lookup, item CSCC[C@H](NC(=O)[C@@H](NC(=O)[C@@H](NC(=O)[C@H](Cc1ccc(O)cc1)NC(=O)[C@H](Cc1ccccc1)NC(=O)[C@H](CCCNC(=N)N)NC(=O)[C@H](CCCCN)NC(C)=O)C(C)C)C(C)C)C(=O)N[C@@H](Cc1c[nH]c2ccccc12)C(=O)N[C@@H](CCCCN)C(=O)N[C@@H](CCCCN)C(N)=O [compound 2] (Ac-KRFYVVMWKK-NH2)
Result: 30

Continuing:
Q: # MEC-1 Cell Death (%) 2 h lookup, item CSCC[C@H](NC(=O)[C@@H](NC(=O)[C@@H](NC(=O)[C@H](Cc1ccc(O)cc1)NC(=O)[C@H](Cc1ccccc1)NC(=O)[C@@H](N)CCCNC(=N)N)C(C)C)C(C)C)C(=O)N[C@@H](Cc1c[nH]c2ccccc12)C(=O)N[C@@H](CCCCN)C(=O)O [4N1, reference compound]
Result: 13

###

- Test system: MEC-1 cells
- Measurement Description: MEC-1 cell death (PCD) after 2 h peptide treatment
- Assay type: cell-based
- Condition Set: Table 2, NPD = Non Pertinent Data
Residues, ends and D or L forms follow the SMILES beside them.
The entries below are paired with their reported MEC-1 Cell Death (%) 2 h.
# output: bare number, implied unit %

Q: # MEC-1 Cell Death (%) 2 h lookup, item CSCC[C@H](NC(=O)[C@@H](NC(=O)[C@@H](NC(=O)[C@H](Cc1ccc(O)cc1)NC(=O)[C@H](Cc1ccccc1)NC(=O)[C@H](CCCNC(=N)N)NC(C)=O)C(C)C)C(C)C)C(=O)N[C@@H](Cc1c[nH]c2ccccc12)C(=O)N[C@@H](CCCCN)C(N)=O [compound 1]
Result: 27

Q: Param item: CSCC[C@H](NC(=O)CNC(=O)CNC(=O)[C@H](Cc1ccc(O)cc1)NC(=O)[C@H](Cc1ccccc1)NC(=O)[C@H](CCCNC(=N)N)NC(=O)[C@@H](N)CCCCN)C(=O)N[C@@H](Cc1c[nH]c2ccccc12)C(=O)N[C@@H](CCCCN)C(=O)N[C@@H](CCCCN)C(=O)O [4NGG, reference compound] (H-KRFYGGMWKK-OH)
Result: 2

Q: Param item: CSCC[C@H](NC(=O)[C@@H](NC(=O)[C@@H](NC(=O)[C@H](Cc1ccc(O)cc1)NC(=O)[C@H](Cc1ccccc1)NC(=O)[C@H](CCCNC(=N)N)NC(=O)[C@H](N)CCCCN)C(C)C)C(C)C)C(=O)N[C@@H](Cc1c[nH]c2ccccc12)C(=O)N[C@@H](CCCCN)C(=O)N[C@H](CCCCN)C(=O)O [PKHB1, reference compound]
Result: 63

Kindly consider the entry below.
Q: # MEC-1 Cell Death (%) 2 h lookup, item CSCC[C@H](NC(=O)[C@@H](NC(=O)[C@@H](NC(=O)[C@H](Cc1ccc(O)cc1)NC(=O)[C@H](Cc1ccccc1)NC(=O)[C@H](CCCNC(=N)N)NC(=O)[C@@H](N)CCCCN)C(C)C)C(C)C)C(=O)N[C@@H](Cc1c[nH]c2ccccc12)C(=O)N[C@@H](CCCCN)C(=O)N[C@@H](CCCCN)C(=O)O [4N1K, reference compound]
Result: 23

Origin of values: patent US11759496B2
